Kindly state MIC90 for each of the entries shown.
- System: Staphylococcus aureus
- protocol-notes: Antibacterial activity against methicillin-resistant Staphylococcus aureus clinical isolates after 24 hrs by CLSI […] broth microdilution method
- Assay type: functional

### Prompt API: value(readout= MIC90, system= Staphylococcus aureus, query= NC(=O)c1c(F)ccc(OCC2COc3ccccc3O2)c1F (stereo not given) )
### Response 3.12 µg/mL

### Prompt Entry CCCCCCCCCOc1ccc(F)c(C(N)=O)c1F , system Staphylococcus aureus: what MIC90 was measured?
### Response 0.39 µg/mL

### Prompt Lookup: MIC90 / Staphylococcus aureus / NC(=O)c1c(F)ccc(OCC2COc3cc(Cl)c(Cl)cc3O2)c1F (stereo not given)
### Response 3.12 µg/mL

### Prompt Find MIC90 (Staphylococcus aureus) for the entry NC(=O)c1c(F)ccc(OCC2COc3ccc(I)cc3O2)c1F (stereo not given)
### Response 0.39 µg/mL

### Prompt Under Staphylococcus aureus: MIC90 value of NC(=O)c1c(F)ccc(OC[C@@H]2COc3ccc(Cl)cc3O2)c1F ?
### Response 1 µM

* * *

- Test system: Staphylococcus aureus
- protocol-notes: Antibacterial activity against […] Staphylococcus aureus ATCC 29213 after 16 hrs by spectrophotometric analysis
- Assay type: functional
- measurement-parameters: ATCC 29213, 16 h
assay-endpoint: MBC (µg/mL)
Response body: numeric value in µg/mL, unit text excluded.

### Prompt Item C#Cc1ccc2c(c1)OC(COc1ccc(F)c(C(N)=O)c1F)CO2 (stereo not given) has what recorded MBC?
### Response 0.625

### Prompt For the compound NC(=O)c1c(F)ccc(OCC2COc3ccc(F)cc3O2)c1F (stereo not given) , what MBC is on record?
### Response 2.5

### Prompt Name the reported MBC value associated with the compound NC(=O)c1c(F)ccc(OCC2COc3ccccc3C2)c1F (stereo not given)
### Response 100

### Prompt Please look up its MBC: NC(=O)c1c(F)ccc(OCC2COc3ccc(I)cc3O2)c1F (stereo not given)
### Response 0.625

### Prompt # input compound: NC(=O)c1c(F)ccc(OCC2CCc3ccccc3O2)c1F (stereo not given) ; wanted: its MBC
### Response 5

### Prompt State the recorded MBC for this entry: NC(=O)c1c(F)ccc(OCC2COc3ccc(N)cc3O2)c1F (stereo not given)
### Response 100

### Prompt Look at this compound and give its reported MBC. C=Cc1ccc2c(c1)OC(COc1ccc(F)c(C(N)=O)c1F)CO2 (stereo not given)
### Response 1.25

### Prompt Report MBC for CCCCCCCCCOc1ccc(F)c(C(N)=O)c1F please.
### Response 1

### Prompt Record request: MBC value, item NC(=O)c1c(F)ccc(OCC2COc3ccc(C(F)(F)F)cc3O2)c1F (stereo not given)
### Response 2.5

### Prompt Form field: reported MBC of NC(=O)c1c(F)ccc(OCc2ccc3c(c2)OCCO3)c1F
### Response 100

### Prompt Please give the measured MBC for this compound: N#Cc1ccc2c(c1)OC(COc1ccc(F)c(C(N)=O)c1F)CO2 (stereo not given)
### Response 2.5

### Prompt State the recorded MBC for this entry: NC(=O)c1c(F)ccc(OCC2COc3cc(Cl)c(Cl)cc3O2)c1F (stereo not given)
### Response 5

### Prompt Quick check: MBC of NC(=O)c1c(F)ccc(OCC2COc3ccc(Br)cc3O2)c1F (stereo not given) ?
### Response 0.625

### Prompt Recorded MBC of NC(=O)c1c(F)ccc(OCC2COc3ccc([N+](=O)[O-])cc3O2)c1F (stereo not given) , please.
### Response 2.5

### Prompt Fill in the blank: the reported MBC of COC(=O)c1ccc2c(c1)OC(COc1ccc(F)c(C(N)=O)c1F)CO2 (stereo not given) is ____.
### Response 0.625

* * *

- Tested on: Mycobacterium tuberculosis
- protocol-notes: Antitubercular activity against Mycobacterium tuberculosis H37Rv by Alamar blue assay
- Assay type: functional
assay-endpoint: MIC (µg/mL)
Number only, in µg/mL; omit the unit.

### Prompt Suppose we examine the compound CCCCCCCCCOc1ccc(F)c(C(N)=O)c1F ; what MIC value has been reported?
### Response 16

### Prompt Can you look up the measured MIC of NC(=O)c1c(F)ccc(OC[C@@H]2COc3ccc(Cl)cc3O2)c1F for me?
### Response 8

### Prompt Param item = NC(=O)c1c(F)ccc(OCC2COc3ccccc3O2)c1F (centres undefined) ; retrieve measured MIC.
### Response 16

### Prompt # query: MIC of entry NC(=O)c1c(F)ccc(OCC2COc3cc(Cl)c(Cl)cc3O2)c1F (centres undefined)
### Response 16
